Values from PubChem BioAssay (NCATS)

test protocol: Quantitative highthroughput screen to assess conditional lethalithy of SEM cells grown in Human Plasma-Like Medium with dialyzed fetal bovine serum (HPLM+ds) (AID 1963882); also: nearly all actives have a fitted effect of over 35% in size
condition context: SEM B-ALL cells in HPLM+ds, CellTiter-Glo viability, 48 h; series mostly up to 45.8 µM
Results filed as inconclusive are left out. The source made the active and inactive calls. Calls follow the shape of the dose curve; as a rule, active = well fitted cell-killing curve with a large enough effect; inconclusive = small, poorly fitted or top-dose-only effect, or effect the other way; inactive = no such curve, though single readings can be large or run the other way. Bridge positions count the residues as written; N and C are the ends. Square brackets hold non-standard residues; d marks the D form. Peptide text beside a SMILES is read from it. * marks the point of attachment. ξ: configuration not given here. Octanoyl(6-Me) = CCC(C)CCCCC(=O)*; ξThr(3R) = C[C@@H](O)C(N)C(=O)O; dDab = NCC[C@@H](N)C(=O)O; Dab = NCC[C@H](N)C(=O)O
Answer with one of the outcomes Y for active, N for inactive

Query block: Write down the call the test reported for this compound. Item: CCC(C)CCCCC(=O)N[C@@H](CCN)C(=O)NC(C(=O)N[C@H](CCN)C(=O)N[C@@H]1CCNC(=O)C([C@@H](C)O)NC(=O)[C@@H](CCN)NC(=O)[C@@H](CCN)NC(=O)[C@@H](CC(C)C)NC(=O)[C@H](Cc2ccccc2)NC(=O)[C@H](CCN)NC1=O)[C@@H](C)O (stereo partly drawn) ({Octanoyl(6-Me)}-[Dab][ξThr(3R)][dDab][dDab][Dab]F[dL][dDab][dDab][ξThr(3R)]; lactam 4-C)
Result block: N

Query block: Then Fc1ccc(CNc2ncnc3ccc(F)cc23)cc1 ?
Result block: N

Query block: Same for COc1cccc2c1C(=O)c1c(O)c3c(c(O)c1C2=O)C[C@@](O)(C(=O)CO)C[C@@H]3O[C@H]1C[C@H](N)[C@@H](O)[C@H](C)O1
Result block: Y

* * *

test protocol: Cellular viability qHTS for adrenocortical cancer (ACC) cell line NCI-H295R (AID 1963990); also: nearly all actives have a fitted effect of over 60% in size; also: potency is read from the fitted curve at half-maximal effect
condition context: CellTiter-Glo ATP luminescence, 48 h; series mostly up to 46.1 µM
Excerpt: PI: Naris Nilubol, MD Surgical Oncology Program, National Cancer Institute (NCI) National Institute of Health (NIH), Bethesda, Maryland Adrenocortical cancer (ACC) is a rare malignancy with poor survival outcomes and few treatment options. Currently, mitotane is the only FDA-approved therapy for ACC. […] Through a quantitative high-throughput drug screen (qHTS), we identified auranofin (AF), a thioredoxin reductase (TXNRD) inhibitor, as a promising candidate drug. […]
Results filed as inconclusive are left out. Active and inactive are the calls of the source. Calls follow the shape of the dose curve; as a rule, active = well fitted cell-killing curve with a large enough effect; inconclusive = small, poorly fitted or top-dose-only effect; inactive = flat fitted curve, though single readings scatter.
reported property: Potency

INSERT INTO assay_data (compound, reported_property, result) VALUES
  ('CCCCCCCCCCCCCCCC[n+]1ccccc1', 'Potency', '5.8 µM (active)'),
  ('O[C@@H](COc1cccc2ncccc12)CN1CCN(C2c3ccccc3[C@@H]3[C@H](c4ccccc42)C3(F)F)CC1 (stereo partly drawn)', 'Potency', '3.55 µM (active)'),
  ('CC(=O)Nc1ccc([C@H](C)C(=O)Nc2ncc(C(C)C)s2)cc1', 'Potency', '3.55 µM (active)'),
  ('CN1CCN(c2cc(C(=O)Nc3ccc4c(c3)-c3c(c(C(N)=O)nn3-c3ccc(F)cc3)CC4)c(Cl)cn2)CC1', 'Potency', '25.1 µM (active)'),
  ('COc1cc(N2CCN(C)CC2)ccc1Nc1nccc(-c2cn(C)c3cnccc23)n1', 'Potency', '25.1 µM (active)'),
  ('OC[C@@H](O)[C@H](O)[C@H](O)[C@@H](O)CO', 'Potency', 'inactive'),
  ('CCn1cc(C(=O)O)c(=O)c2cnc(N3CCNCC3)nc21', 'Potency', 'inactive'),
  ('O=c1cc(-c2ccc(O)cc2)oc2cc(O)cc(O)c12', 'Potency', 'inactive');

Query block: Quick one: Potency of CC(C)=CCC[C@](C)(O[C@@H]1O[C@H](CO[C@@H]2O[C@H](CO)[C@@H](O)[C@H](O)[C@H]2O)[C@@H](O)[C@H](O)[C@H]1O)[C@H]1CC[C@]2(C)[C@@H]1[C@H](O)C[C@@H]1[C@@]3(C)CC[C@H](O[C@@H]4O[C@H](CO)[C@@H](O)[C@H](O)[C@H]4O[C@@H]4O[C@H](CO)[C@@H](O)[C@H](O)[C@H]4O)C(C)(C)[C@@H]3CC[C@]12C ?
Result block: inactive

Query block: // same read-out, input: CCOCc1nc2c(N)nc3ccccc3c2n1CC(C)(C)O
Result block: inactive

Query block: Try the compound CO/N=C(/C(=O)N[C@@H]1C(=O)N2C(C(=O)O)=C(Cn3nnc(C)n3)CS[C@H]12)c1csc(N)n1
Result block: inactive

Query block: # repeat for CC(C)(C)C(=O)Oc1ccc(S(=O)(=O)Nc2ccccc2C(=O)NCC(=O)O)cc1
Result block: inactive

Query block: Another: O=C1c2ccccc2CCc2ccccc21
Result block: inactive

Query block: Proceed to COc1cc(N2CCC(N)CC2)ccc1Nc1ncc(Cl)c(-c2c[nH]c3ccccc23)n1
Result block: 0.447 µM (active)

Query block: One more compound: NC(=O)Nc1cc(-c2cccc(F)c2)sc1C(=O)N[C@H]1CCCNC1
Result block: 0.794 µM (active)

Query block: Moving on to the next compound: CO[C@@]1(NC(=O)CSCC#N)C(=O)N2C(C(=O)O)=C(CSc3nnnn3C)CS[C@@H]21
Result block: inactive

Query block: Could you do the same for CCCCC(=O)O[C@]1(C(=O)CO)[C@@H](C)C[C@H]2[C@@H]3CCC4=CC(=O)C=C[C@]4(C)[C@@]3(F)[C@@H](O)C[C@@]21C , please?
Result block: inactive

Query block: Another compound: O=C(O)c1ccccc1O
Result block: inactive

Query block: Here is the next compound: COCCN1CCN(Cc2ccc(-c3n[nH]c4c3C(=O)c3c(NC(=O)NN5CCOCC5)cccc3-4)cc2)CC1
Result block: 0.891 µM (active)

Query block: Now give it for Clc1cc2c(NC3CCCC3)nnc(-c3ccncc3)c2cc1Cl too.
Result block: inactive

* * *

test protocol: Viability qHTS for spleen associated tyrosine kinase inhibitor (SYKi) naive MV4-11 cells (AID 1963823); also: nearly all actives have a fitted effect of over 40% in size
condition context: MV4-11 AML viability, CellTiter-Glo luminescence, 72 h; series mostly up to 45 µM
Results filed as inconclusive are left out. The source made the active and inactive calls. The call rests on the fitted dose curve; in most records, active means well fitted cell-killing curve with a large enough effect; inconclusive means small, poorly fitted or top-dose-only effect, or effect the other way; inactive means no such curve, though single readings can be large or run the other way.
reported property: outcome

INSERT INTO results (compound, result) VALUES
  ('COc1ccc(Cc2cnc(N)nc2N)cc1OC', 'inactive'),
  ('CC1OC(OC2CCC3(C)C(CCC4(C)C3CC=C3C5CC(C)(C)CCC5(C(=O)OC5OC(CO)C(O)C(O)C5O)CCC34C(=O)O)C2(C)C)C(O)C(O)C1O (stereo not drawn)', 'inactive'),
  ('C[C@@H]1O[C@@H](OC[C@H]2O[C@@H](OCC3CCC4CC3C4(C)C)[C@H](O)[C@@H](O)[C@@H]2O)[C@H](O)[C@H](O)[C@H]1O (stereo partly drawn)', 'inactive');

* * *

test protocol: Quantitative highthroughput screen to assess conditional lethalithy of SEM cells grown in Human Plasma-Like Medium with dialyzed fetal bovine serum (HPLM+ds) (AID 1963882); also: nearly all actives have a fitted effect of over 35% in size
condition context: SEM B-ALL cells in HPLM+ds, CellTiter-Glo viability, 48 h; series mostly up to 45.8 µM
Inconclusive results are not listed. Active and inactive are the calls of the source. The call rests on the fitted dose curve; in most records, active means well fitted cell-killing curve with a large enough effect; inconclusive means small, poorly fitted or top-dose-only effect, or effect the other way; inactive means no such curve, though single readings can be large or run the other way.
Could you please pick one outcome from this set? active, inactive

Query block: What did the test return for COc1ccc(CCC(=O)c2c(O)cc(O[C@@H]3O[C@H](CO)[C@@H](O)[C@H](O)[C@@H]3O[C@@H]3O[C@@H](C)[C@H](O)[C@@H](O)[C@@H]3O)cc2O)cc1O ?
Result block: inactive

Query block: Also need C[C@](N)(Cc1ccc(O)c(O)c1)C(=O)O , thanks.
Result block: active

Query block: # iterate: O=c1[nH]nc(Sc2ncc([N+](=O)[O-])s2)n1-c1ccc2c(c1)OCCO2
Result block: active

* * *

test protocol: Quantitative highthroughput screen to assess conditional lethalithy of SEM cells grown in RPMI1640 with unreated serum (RPMI+s) (AID 1963883); also: nearly all actives have a fitted effect of over 35% in size
condition context: SEM B-ALL cells, CellTiter-Glo viability, 48 h; series mostly up to 45.8 µM
Results filed as inconclusive are left out. Calls of active or inactive are those of the source. The call rests on the fitted dose curve; in most records, active means well fitted cell-killing curve with a large enough effect; inconclusive means small, poorly fitted or top-dose-only effect, or effect the other way; inactive means no such curve, though single readings can be large or run the other way.
The reply should name one outcome from active, inactive

Query block: What is the recorded call for this molecule in the test? O=C(O)CCNc1cc(N2CCc3ccccc3CC2)nc(-c2ccccn2)n1
Result block: inactive

Query block: // same read-out, input: COc1cc2c(Nc3ccc(Cl)c(Cl)c3F)ncnc2cc1OCC1C[C@@H]2CN(C)C[C@H]2C1
Result block: active

Query block: What would you report for Nc1nc(OCc2ccccc2)c2[nH]cnc2n1 ?
Result block: inactive

Query block: Queued: Cc1ccc(C(=O)Nc2cccc(C(F)(F)F)c2)cc1-c1ccc2nc(NCCN3CCOCC3)ncc2c1
Result block: active

Query block: Same question, O=C(O)c1ccc2cc(-c3ccc(O)c(C45CC6CC(CC(C6)C4)C5)c3)ccc2c1 this time
Result block: active

Query block: And CNC(=O)c1cc(Oc2ccc(NC(=O)Nc3ccc(Cl)c(C(F)(F)F)c3)c(F)c2)ccn1 ?
Result block: active
